Would you mind telling me the reported melting point of each entry?

Tell us which melting point value is on record for C1CCC(C2CNCCNCCNCCNCCN2)CC1 (stereo not drawn)
67 to 69.5 °C

Indicate its recorded melting point; the compound in question is `C[C@H](NC(=O)c1c[nH]c2ncc(-c3cn(-c4cccc(C(F)(F)F)c4)cn3)nc12)C(C)(C)C`
332 to 333 °C

Look up and report measured melting point for this entry: Clc1ccc(OC2CC3CCC(C2)N3Cc2nccs2)cc1Cl (stereo not drawn)
123 to 124 °C

====

Assignment: determine reported melting point for the given compounds.

Read off the recorded melting point for `Cc1cc(C(=O)NCCCCc2ccc(-c3ccc(=O)[nH]n3)cc2)on1`
236 to 238 °C

Give the reported melting point for this compound. `Cc1cc(-c2nc3cccnn3c2-c2ccnc(NC(=O)c3ccoc3)c2)ccc1F`
199 to 200 °C

Answer with the recorded melting point of COc1ccc2cc(C(C)C(=O)ON(C(N)=O)C(C)c3ccoc3)ccc2c1 (stereo not drawn) only.
128 to 134 °C
